Molecular target: mitochondrial complex III (Homo sapiens, UniProt P00156+P47985)
Construct: other: mean ± SD; HCT116, 24 hr treatment; Complex III activity (OCR, % of control); other: 0.1 μM, 24 hr, HCT116; n = 4; other: 0.5 μM, 24 hr, HCT116; other: 0.75 μM, 24 hr, HCT116; other: 1 μM, 24 hr, HCT116; Compl
Assay: Complex III-dependent oxygen consumption (OCR), Seahorse XF-96, HCT116 cells
Type: cell-based
Settings: read-out: IC50 Complex III (FIG. 2); mean ± SD; HCT116, 24 hr treatment

- Compound: "NC(=O)NO [HU, Hydroxyurea]"
  IC50: "> 3 mM"

###

Target: mitochondrial complex I (Homo sapiens, UniProt O75251+O75306+P03886)
Assay: Complex I-dependent oxygen consumption (OCR), Seahorse XF-96, HCT116 cells
Format: cell-based
Details: HCT116, 24 hr
Experimental readout: effect on complex I-induced oxygen consumption

- Chemical smiles: "NC(=O)NOCCCCCCCCCC[P+](c1ccccc1)(c1ccccc1)c1ccccc1.O=C([O-])C(F)(F)F"
  Tested on: "mitochondrial complex I (Homo sapiens, UniProt O75251+O75306+P03886)"
  Result: "potently inhibited"
- Chemical smiles: "NC(=O)NOCCCCCCCCCCCCCC[P+](c1ccccc1)(c1ccccc1)c1ccccc1.O=C([O-])C(F)(F)F"
  Tested on: "mitochondrial complex I (Homo sapiens, UniProt O75251+O75306+P03886)"
  Result: "potently inhibited"
- Chemical smiles: "NC(=O)NOCCCCCCCCCCCCCCCC[P+](c1ccccc1)(c1ccccc1)c1ccccc1.O=C([O-])C(F)(F)F"
  Tested on: "mitochondrial complex I (Homo sapiens, UniProt O75251+O75306+P03886)"
  Result: "potently inhibited"
- Chemical smiles: "NC(=O)NOCCCCCCCCCCCC[P+](c1ccccc1)(c1ccccc1)c1ccccc1.O=C([O-])C(F)(F)F"
  Tested on: "mitochondrial complex I (Homo sapiens, UniProt O75251+O75306+P03886)"
  Result: "potently inhibited"

###

Molecular target: mitochondrial complex I (Homo sapiens, UniProt O75251+O75306+P03886)
Test: Complex I-dependent oxygen consumption (OCR), Seahorse XF-96, HCT116 cells
Format: cell-based
Details: read-out: IC50 Complex I (FIG. 2); mean ± SD; HCT116, 24 hr treatment
pIC50: −log10 of the molar value.
Experimental readout: pIC50

- Compound: "NC(=O)NO [HU, Hydroxyurea]"
  Result: "< 2.52"
